Entry source: patent US9670227B2

Target: Mcl-1 protein (UniProtKB primary accession number: Q07820) (Homo sapiens, UniProt Q07820)
Sequence (Q07820 whole entry): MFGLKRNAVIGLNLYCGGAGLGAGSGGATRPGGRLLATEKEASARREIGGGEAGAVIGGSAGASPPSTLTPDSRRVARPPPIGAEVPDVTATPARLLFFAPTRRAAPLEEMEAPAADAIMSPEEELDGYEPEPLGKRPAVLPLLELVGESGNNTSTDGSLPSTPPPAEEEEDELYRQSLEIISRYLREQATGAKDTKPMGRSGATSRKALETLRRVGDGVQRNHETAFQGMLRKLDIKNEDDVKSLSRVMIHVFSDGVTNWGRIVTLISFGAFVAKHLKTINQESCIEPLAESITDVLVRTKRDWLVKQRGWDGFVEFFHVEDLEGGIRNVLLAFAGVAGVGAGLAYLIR
Experiment: Inhibition of Mcl-1 by fluorescence polarisation, Method 1
Format: binding
Settings: fluorescence polarisation test; Method 1, or Method 2 where the value is underlined (underlining not visible); read-out: IC50 (M) Mcl-1 FP
Experimental: The relative binding potency of each compound was determined via Fluorescence Polarisation (FP). An 11 point serial dilution of each compound was prepared in DMSO and 2 μl transferred into flat bottomed, low binding, 384-well plate (final DMSO concentration 5%). […]
# IC50 per record follows
REPORTED ENDPOINT: IC50

COMPOUND | REPORTED ENDPOINT | RESULT
COc1ccccc1CC(Oc1ncnc2sc(-c3ccc(F)cc3)c(-c3ccc(OCCN4CCN(C)CC4)c(Cl)c3C)c12)C(=O)OCC(=O)N(C)C (stereo not drawn) | IC50 | 1.67e-06 M
CCN(C)CCOc1ccc(-c2c(-c3ccc(F)cc3)sc3ncnc(OC(Cc4ccccc4OCc4ccnc(-c5ccccc5F)n4)C(=O)OCC(=O)N(C)C)c23)c(C)c1Cl (stereo not drawn) | IC50 | 2.4e-06 M
COCCOCCOC(=O)C(Cc1ccccc1OCc1ccnc(-c2ccccc2OC)n1)Oc1ncnc2sc(-c3ccc(F)cc3)c(-c3ccc(OCCN4CCN(C)CC4)c(Cl)c3C)c12 (stereo not drawn) | IC50 | 6.39e-07 M

====

# IC50 per record follows
Target: Mcl-1 protein (UniProtKB primary accession number: Q07820) (Homo sapiens, UniProt Q07820)
Experiment: Inhibition of Mcl-1 by fluorescence polarisation, Method 1
Assay type: binding
Details: fluorescence polarisation test; Method 1, or Method 2 where the value is underlined (underlining not visible); read-out: IC50 (M) Mcl-1 FP
Method: The relative binding potency of each compound was determined via Fluorescence Polarisation (FP). An 11 point serial dilution of each compound was prepared in DMSO and 2 μl transferred into flat bottomed, low binding, 384-well plate (final DMSO concentration 5%). […]

COMPOUND | IC50 / M
COc1ccccc1-c1nccc(COc2ccccc2CC(Oc2ncnc3sc(-c4ccc(F)cc4)c(-c4ccc(OCCN5CCN(C)CC5)c(Cl)c4C)c23)C(=O)OCC(F)(F)F)n1 (stereo not shown) | 1.72e-07
CCC(=O)OC(C)OC(=O)C(Cc1ccccc1OCc1ccnc(-c2ccccc2OC)n1)Oc1ncnc2sc(-c3ccc(F)cc3)c(-c3ccc(OCCN4CCN(C)CC4)c(Cl)c3C)c12 (stereo not shown) | 2.04e-07
CCOC(=O)C(Cc1ccccc1OCc1ccnc(-c2ccccc2OCCOC)n1)Oc1ncnc2sc(-c3ccc(F)cc3)c(-c3ccc(OCCN(C)C)c(Cl)c3C)c12 (stereo not shown) | 1.63e-06
COCCOC(=O)C(Cc1ccccc1OCc1ccnn1C(C)(C)C)Oc1ncnc2sc(-c3ccc(F)cc3)c(-c3ccc(OCCN(C)C)c(Cl)c3C)c12 (stereo not shown) | 2.88e-06

====

# IC50 per record follows
target: Mcl-1 protein (UniProtKB primary accession number: Q07820) (Homo sapiens, UniProt Q07820); assay: Inhibition of Mcl-1 by fluorescence polarisation, Method 1; assay type: binding; conditions: fluorescence polarisation test; Method 2 values are underlined in the patent (underlining not visible here); read-out: IC50 (M) Mcl-1 FP
REPORTED ENDPOINT: IC50

MOLECULE | RESULT
COc1cc(COc2ccccc2CC(Oc2ncnc3sc(-c4ccc(F)cc4)c(-c4ccc(OCCN5CCN(C)CC5)c(Cl)c4C)c23)C(=O)O)nc(OC)n1 (stereo not drawn) | 1.6e-08 M
Cc1c(-c2c(-c3ccc(F)cc3)sc3ncnc(OC(Cc4ccccc4OCc4ccnc(-c5ccc(Cl)nc5)n4)C(=O)O)c23)ccc(OCCN2CCN(C)CC2)c1Cl (stereo not drawn) | 4.3e-09 M
Cc1c(-c2c(-c3ccc(F)cc3)sc3ncnc(OC(Cc4ccccc4OCC(F)(F)F)C(=O)O)c23)ccc(OCCN(C)C)c1Cl (stereo not drawn) | 2e-08 M

====

Biological target: Mcl-1 protein (UniProtKB primary accession number: Q07820) (Homo sapiens, UniProt Q07820)
Test: Inhibition of Mcl-1 by fluorescence polarisation, Method 1
Assay type: binding
Conditions: fluorescence polarisation test; Method 2 values are underlined in the patent (underlining not visible here); read-out: IC50 (M) Mcl-1 FP
Description: The relative binding potency of each compound was determined via Fluorescence Polarisation (FP). An 11 point serial dilution of each compound was prepared in DMSO and 2 μl transferred into flat bottomed, low binding, 384-well plate (final DMSO concentration 5%). […]
# IC50 per record follows
REPORTED ENDPOINT: IC50

MOLECULE | REPORTED ENDPOINT | RESULT
Cc1ccncc1-c1nccc(COc2ccccc2CC(Oc2ncnc3sc(-c4ccc(F)cc4)c(-c4ccc(OCCN(C)C)c(Cl)c4C)c23)C(=O)O)n1 (stereo not drawn) | IC50 | 8.9e-09 M
COc1ccc(C)cc1CC(Oc1ncnc2sc(-c3ccco3)c(-c3ccc(OCCN4CCN(C)CC4)c(Cl)c3C)c12)C(=O)O (stereo not drawn) | IC50 | 1.6e-08 M
Cc1c(-c2c(-c3ccc(F)o3)sc3ncnc(OC(Cc4ccccc4OCCOCCO)C(=O)O)c23)ccc(OCCN2CCN(C)CC2)c1Cl (stereo not drawn) | IC50 | 5.5e-09 M

====

target: Mcl-1 protein (UniProtKB primary accession number: Q07820) (Homo sapiens, UniProt Q07820); experiment: Inhibition of Mcl-1 by fluorescence polarisation, Method 1; assay type: binding; conditions: fluorescence polarisation; Method 1, or Method 2; read-out: IC50 (M) Mcl-1 FP

MOLECULE | IC50 [M]
COc1ccccc1CC(Oc1ncnc2sc(C(C)(F)F)c(-c3ccc(OCCN4CCN(C)CC4)c(Cl)c3C)c12)C(=O)O (centres unmarked) | 6.2e-08
CCCCn1nccc1COc1ccccc1CC(Oc1ncnc2sc(-c3ccc(N4CCOCC4)nc3)c(-c3ccc(OCCN4CCN(C)CC4)c(Cl)c3C)c12)C(=O)O (centres unmarked) | 7e-09
COc1ccccc1C[C@@H](Oc1ncnc2sc(-c3cccc(F)c3F)c(-c3ccc(C#CCN4CCN(C)CC4)c(Cl)c3C)c12)C(=O)O (single isomer, unassigned) [Example 716] | 1.5e-06
COc1ccccc1-c1nccc(COc2ccccc2CC(Oc2ncnc3sc(-c4ccc(F)cc4)c(-c4ccc(OCCN5CCN(C)CC5)c(Cl)c4Br)c23)C(=O)O)n1 (centres unmarked) | 9.48e-10
COc1ccccc1C[C@@H](Oc1ncnc2sc(-c3ccc(F)cc3)c(-c3cc(F)c(OCCN4CCN(C)CC4)c(Cl)c3C)c12)C(=O)O (single isomer, unassigned) [Example 665] | 3.9e-06

====

biological target: Mcl-1 protein (UniProtKB primary accession number: Q07820) (Homo sapiens, UniProt Q07820); assay: Inhibition of Mcl-1 by fluorescence polarisation, Method 1; format: binding; details: fluorescence polarisation; Method 1, or Method 2; read-out: IC50 (M) Mcl-1 FP
# IC50 per record follows

COMPOUND | IC50, M
CCCCn1nccc1COc1ccccc1CC(Oc1ncnc2sc(-c3cccnc3)c(-c3ccc(OCCN4CCN(C)CC4)c(Cl)c3C)c12)C(=O)O (stereo not shown) [Example 609] | 3.5e-09
COc1ccc(Cl)cc1CC(Oc1ncnc2sc(-c3ccc(Cl)o3)c(-c3ccc(OCCN4CCN(C)CC4)c(Cl)c3C)c12)C(=O)O (stereo not shown) [Example 714] | 3.4e-08
CC#Cc1sc2ncnc(OC(Cc3ccccc3OC)C(=O)O)c2c1-c1cc(N2CCN(C)CC2)c(OC)c(Cl)c1C (stereo not shown) [Example 473] | 5e-08
CCc1sc2ncnc(O[C@H](Cc3ccccc3)C(=O)O)c2c1-c1cc2cc(CN(C)C)oc2c(Cl)c1C [Example 442] | 1.1e-07

====

tested on: H929 multiple myeloma tumour line; assay: In vitro cytotoxicity, Microculture Tetrazolium Assay; assay type: cell-based; details: Homo sapiens, NCI-H929, 48 h, H929 cells, 48 hours exposure, MTT; read-out: IC50 (μM) MTT H929
Assign labels as follows, please: yes for IC50 below 0.3 µM; no for IC50 equal to or exceeding 0.3 µM.

MOLECULE | ASSIGNED CLASS
CCCCn1nccc1COc1ccccc1CC(Oc1ncnc2sc(C#CCOC)c(-c3ccc(OCCN4CCN(C)CC4)c(Cl)c3C)c12)C(=O)O (stereo not drawn) | yes
Cc1c(-c2c(-c3ccc(Cl)o3)sc3ncnc(OC(Cc4ccccc4OCc4ccnc(N5CCOCC5)n4)C(=O)O)c23)ccc(OCCN2CCN(C)CC2)c1Cl (stereo not drawn) | yes
Cc1c(-c2c(-c3ccc(F)o3)sc3ncnc(OC(Cc4ccccc4OCc4cc(C(F)(F)F)ccn4)C(=O)O)c23)ccc(OCCN2CCN(C)CC2)c1Cl (stereo not drawn) | yes
Cc1c(-c2c(-c3ccco3)sc3ncnc(OC(Cc4ccccc4OCc4ccnc(N5CCOCC5)n4)C(=O)O)c23)ccc(OCCN2CCN(C)CC2)c1Cl (stereo not drawn) | yes
Cc1c(-c2c(-c3ccc(F)cc3)sc3ncnc(OC(Cc4ccccc4OCc4cnccn4)C(=O)O)c23)ccc(OCCCN(C)C)c1Cl (stereo not drawn) | no
